Values were extracted from patent US10919841B2.

Please respond with reported Locomotor Activity 8-Hour Time, min Period, length for every item in the list.
- System: mice
- assay.explanation: locomotor activity, 8-h time course protocol
- Type: in vivo
- study.conditions: duration of locomotor activity

Exercise: State its Locomotor Activity 8-Hour Time, min Period, length for this molecule: CC(NC1CC1)C(=O)c1cccc(Cl)c1 (stereo not shown)
Solution: 350 min

Exercise: Assign Locomotor Activity 8-Hour Time, min Period, length to the following record: CC(NC(C)(C)C)C(=O)c1ccc(Br)cc1 (stereo not shown)
Solution: 160 min

Exercise: Dear colleague, please send me the reported Locomotor Activity 8-Hour Time, min Period, length for CC(NC(C)(C)C)C(=O)c1ccc(Cl)c(Cl)c1 (stereo not shown) when you can.
Solution: 140 to 240 min

Exercise: Fill in reported Locomotor Activity 8-Hour Time, min Period, length for this entry: CCCC(NC(C)(C)C)C(=O)c1cccc(Cl)c1 (stereo not shown)
Solution: 210 to 480 min

Exercise: Quote Locomotor Activity 8-Hour Time, min Period, length reported for CC(NC(C)(C)C)C(=O)c1cccc(Cl)c1 (racemic) [Compound 2a, reference compound] please.
Solution: 130 to 270 min

Exercise: State, in one line, measured Locomotor Activity 8-Hour Time, min Period, length of CCC(NC(C)(C)C)C(=O)c1ccc(Cl)c(Cl)c1 (stereo not shown)
Solution: 60 min

Exercise: Read the entry CC(NC1CCCC1)C(=O)c1cccc(Cl)c1 (stereo not shown) and write its reported Locomotor Activity 8-Hour Time, min Period, length.
Solution: 330 to 340 min

Exercise: State its Locomotor Activity 8-Hour Time, min Period, length for this molecule: CCCCC(NC(C)(C)C)C(=O)c1cccc(Cl)c1 (stereo not shown)
Solution: 40 to 460 min

Exercise: Input CC(C)NC(C)C(=O)c1cccc(Cl)c1 (stereo not shown) , output reported Locomotor Activity 8-Hour Time, min Period, length.
Solution: 50 to 160 min

Exercise: Please indicate Locomotor Activity 8-Hour Time, min Period, length recorded for COC(=O)[C@H]1[C@@H](OC(=O)c2ccccc2)C[C@@H]2CC[C@H]1N2C [cocaine, reference compound]
Solution: 40 to 100 min

* * *

- Test system: mice
- assay.explanation: locomotor activity, 1-h observation protocol
- Assay type: in vivo
- study.conditions: dose to produce 50% of the compound's maximal effect; 1-h
Marks after values point to notes of the source that are not given here.
quantity.name: Locomotor Activity 1-Hour ED50

Worked examples follow.
CC(C(=O)c1cccc(Cl)c1)N1CCCCC1 (centres unmarked)    NE^f
COC(=O)[C@H]1[C@@H](OC(=O)c2ccccc2)C[C@@H]2CC[C@H]1N2C [cocaine, reference compound]    8.5-11^e mg/kg
CC(C)(C)NC(CCC1CCCCC1)C(=O)c1cccc(Cl)c1 (centres unmarked)    NE^f
CC(NC(C)(C)C)C(=O)c1ccc(Cl)c(Cl)c1 (centres unmarked)    NE^f

Field: next compound
Exercise: For the compound CC(NC(C)(C)C)C(=O)c1ccc(Cl)cc1 (centres unmarked) , give its reported Locomotor Activity 1-Hour ED50.
Solution: NE^f

* * *

For each record, write down the corresponding responders at 5 mg/kg.
- Test system: rats
- assay.explanation: cocaine discrimination (2-lever operant), i.p. administration
- study.conditions: Rattus norvegicus, ip, read-out: % cocaine lever responding
Record the value in %, omitting the unit from your answer.

Exercise: Give the value of responders at 5 mg/kg reported for the following: CCCCCCC(NC(C)(C)C)C(=O)c1cccc(Cl)c1 (stereo not shown)
Solution: 0

Exercise: In one line, give reported responders at 5 mg/kg of the entry CC(NC(C)(C)C)C(=O)c1ccc(Cl)cc1 (stereo not shown) .
Solution: 0

Exercise: Tell us which responders at 5 mg/kg value is on record for Cc1ccc(C(=O)C(C)NC(C)(C)C)cc1 (stereo not shown)
Solution: 0

Exercise: Indicate its recorded responders at 5 mg/kg; the molecule in question is CCCCC(NC(C)(C)C)C(=O)c1cccc(Cl)c1 (stereo not shown)
Solution: 1

Exercise: Annotate the molecule CC(NC(C)(C)C)C(=O)c1cccc(Cl)c1 (racemic) [Compound 2a, reference compound] with its measured responders at 5 mg/kg.
Solution: 0

Exercise: Indicate the recorded responders at 5 mg/kg value for this molecule: CC(C(=O)c1cccc(Cl)c1)N(C)C(C)(C)C (stereo not shown)
Solution: 0

Exercise: Given the molecule CCC(NC(C)(C)C)C(=O)c1ccc(Cl)c(Cl)c1 (stereo not shown) , write its reported responders at 5 mg/kg.
Solution: 1
